Cited source: PubChem BioAssay (NCI)

# protocolNotes: NCI Yeast Anticancer Drug Screen. Data for the sgs1 mgt1 strain (AID 161);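 also: 0% = growth of cultures given vehicle only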
# settings: S. cerevisiae sgs1 mgt1 strain, at 50.0 µM (retest, dose inferred, filed as 5.0), stronger effect = higher value
The panel holds about 79,000 compounds, 15% with a hit somewhere; the sample as a whole holds those more often.
propertyLabel: growth inhibition (%)

molecule=O=C(c1cccs1)N(C(=S)N1CCN(c2ccccn2)CC1)c1ccccc1 outputunit=% assayvalue=1
molecule="CC(=O)OCC1OC(c2cccc3c2c2ccccc2n3S(=O)(=O)c2ccccc2)C(O)C1O (stereo not drawn)" outputunit=% assayvalue=97
molecule=CN(C)Cc1ccc(C(C)(C)C)cc1-c1cc(C(C)(C)C)ccc1CN(C)C outputunit=% assayvalue=2
molecule="O=C1NC(Cc2ccccc2)C(=O)O1 (stereo not drawn)" outputunit=% assayvalue=13
molecule="CC(=O)O[C@H]1[C@@H]2CC(C)(C)CC2=C(C=O)C2(C=O)CC12C (stereo partly drawn)" outputunit=% assayvalue=99
molecule=COC(=O)c1cc[nH]c(=O)c1 outputunit=% assayvalue=-68
molecule="O=S1CCS(=O)C1c1ccccc1 (stereo not drawn)" outputunit=% assayvalue=33
molecule=C1=C([P+](c2ccccc2)(c2ccccc2)c2ccccc2)CCCC1 outputunit=% assayvalue=84
molecule=Cc1cc(N(CCOS(C)(=O)=O)CCOS(C)(=O)=O)ccc1C=Nc1cccc(Cl)c1 outputunit=% assayvalue=61
molecule=O=C1NC(=S)S/C1=C\c1cc(Cl)ccc1O outputunit=% assayvalue=4
molecule="CSCS(=O)C[C@H](CO)NC(=O)/C=C/c1c(C)[nH]c(=O)[nH]c1=O (stereo partly drawn)" outputunit=% assayvalue=98
molecule=CCc1cccc(C)c1NC(=O)C1=C(C)NC(C)=C(C(=O)Nc2c(C)cccc2CC)C1c1ccc2c(c1)OCO2 outputunit=% assayvalue=33
molecule=O=C(n1c2ccccc2c2n[nH]c(=S)nc21)C(F)(F)F outputunit=% assayvalue=-2
molecule=Cc1ccc(O)c(C(c2cc(C)ccc2O)c2cc([N+](=O)[O-])ccc2O)c1 outputunit=% assayvalue=99
molecule=CC(C)=NNc1ncnc2nc[nH]c12 outputunit=% assayvalue=-13
molecule="C/C=C1/C=CC2c3[nH]c4ccccc4c3CCN2C1 (stereo not drawn)" outputunit=% assayvalue=-67
molecule=CN(C)CC(CN(C)C)C(=O)c1ccc(Oc2ccc(Cl)cc2)cc1 outputunit=% assayvalue=99
molecule=ClCc1ccccc1Cc1ccccc1 outputunit=% assayvalue=83
molecule=CCCCCc1[nH]nc(C(=O)OC)c1N=NN1CCOCC1 outputunit=% assayvalue=99
molecule="CS(C)=O.[Cl-].[Cl-].[NH-]CC(O)CN(Cc1ccccc1)CC(O)CN.[Pt] (stereo not drawn)" outputunit=% assayvalue=18
molecule=O=c1c2ccccc2sc2c(CO)ccc(NCCN3CCCCC3)c12 outputunit=% assayvalue=35
molecule=CC(C)NCCCNc1nc(NCCCNC(C)C)c2nc(-c3ccccc3)c(-c3ccccc3)nc2n1 outputunit=% assayvalue=86
molecule=CCCCCCCCCCCCCCCc1ncc(C)[nH]1 outputunit=% assayvalue=99

###

# protocolNotes: NCI Yeast Anticancer Drug Screen. Data for the bub3 strain (AID 167)
# settings: S. cerevisiae bub3 mutant strain, at 5.0 µM (retest, dose inferred, filed as 0.5), stronger effect = higher value
Compounds without any hit were thinned out: in the full panel of roughly 79,000, 15% have a hit.
Entries annotated with measured growth inhibition
propertyLabel: growth inhibition (%)

molecule="CC(=O)NC1C(=O)CC(c2ccccc2)N(C)C1c1ccccc1 (stereo unspecified)" propertylabel="growth inhibition" assayvalue=2
molecule=Cc1ccc(NC(=O)CCc2nnc(N)n2N)cc1 propertylabel="growth inhibition" assayvalue=4
molecule=O=C1/C(=C/c2cccc([N+](=O)[O-])c2)CCCc2ccccc21 propertylabel="growth inhibition" assayvalue=20
molecule=Nc1ccccc1-c1nc2c(ccc3ccccc32)[nH]1 propertylabel="growth inhibition" assayvalue=-3
molecule="Cn1c(C2CCC(=O)N2Cc2ccccc2)n[nH]c1=S (stereo unspecified)" propertylabel="growth inhibition" assayvalue=3
molecule=CN=C1NS(=O)(=O)c2ccccc21 propertylabel="growth inhibition" assayvalue=11
